# SYSTEM_UNDER_TEST: M-phase inducer phosphatase 2 (Homo sapiens)
# Sequence (P30305 whole entry): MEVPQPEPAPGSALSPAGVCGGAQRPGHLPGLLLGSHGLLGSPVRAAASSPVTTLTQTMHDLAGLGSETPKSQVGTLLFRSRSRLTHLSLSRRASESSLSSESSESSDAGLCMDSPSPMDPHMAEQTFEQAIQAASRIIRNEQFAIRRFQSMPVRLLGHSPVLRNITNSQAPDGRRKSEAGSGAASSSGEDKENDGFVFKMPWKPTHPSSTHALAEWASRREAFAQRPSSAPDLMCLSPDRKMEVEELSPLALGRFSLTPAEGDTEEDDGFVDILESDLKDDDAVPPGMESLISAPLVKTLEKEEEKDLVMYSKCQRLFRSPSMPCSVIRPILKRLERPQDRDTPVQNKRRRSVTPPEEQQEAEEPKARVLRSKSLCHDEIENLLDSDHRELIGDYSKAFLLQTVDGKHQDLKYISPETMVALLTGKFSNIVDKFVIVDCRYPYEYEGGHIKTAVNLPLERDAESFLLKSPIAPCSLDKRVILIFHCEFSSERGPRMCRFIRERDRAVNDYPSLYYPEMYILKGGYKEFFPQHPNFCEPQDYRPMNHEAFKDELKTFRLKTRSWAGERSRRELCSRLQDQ
# ASSAY_DETAILS: Inhibition of full-length 6His/GST-tagged recombinant human CDC25B using OMFP as substrate incubated for 60 mins by fluorescence based analysis
MEASUREMENT_NAME: pIC50
# pIC50 = -log10(concentration in molar units)

The compound identified as O=C(O)c1cccc2c1NC(C(=O)O)C1CC=CC21 (stereo not drawn) registered its pIC50 at 5.60

The compound identified as O=C(O)C1Nc2ccc(Cl)cc2C2C=CCC12 (stereo not drawn) registered its pIC50 at 5.60

The record that follows has no pIC50 shown yet.
The compound identified as O=C(O)c1ccc2c(c1)C1C=CCC1C(C(=O)O)N2 (stereo not drawn) registered its pIC50 at 5.60
